B1: TPRG1 (parent)
chain: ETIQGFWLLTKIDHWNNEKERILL

Variants of: B1
Run description: protein stability index of a GFP-peptide fusion (GPS, HEK-293T) (PSI 1-6); higher = more stable;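 also: lentivirally expressed fusions sorted by FACS into six bins by GFP to DsRed ratio, PSI derived from sequencing read proportions per bin multiplied by bin number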
Conditions: c terminus: a fixed tail appended
Each record here notes measured protein stability index.
Property: protein stability index

>>> value_measured("T2Q")
2.82
>>> value_measured("W7H")
1.04
>>> value_measured("W15P")
2.2
>>> value_measured("E18K")
1.71
>>> value_measured("W15E")
2.05
>>> value_measured("F6D")
1.72
>>> value_measured("D13T")
1.69
>>> value_measured("N16T")
3.58
>>> value_measured("I3L")
1.53
>>> value_measured("E1I")
3.09
>>> value_measured("I3V")
3.9
